From: patent US20130096149A1

Target: b-Raf(V600E) (Homo sapiens, UniProt P15056, V600E)
Sequence (P15056 whole entry V600E): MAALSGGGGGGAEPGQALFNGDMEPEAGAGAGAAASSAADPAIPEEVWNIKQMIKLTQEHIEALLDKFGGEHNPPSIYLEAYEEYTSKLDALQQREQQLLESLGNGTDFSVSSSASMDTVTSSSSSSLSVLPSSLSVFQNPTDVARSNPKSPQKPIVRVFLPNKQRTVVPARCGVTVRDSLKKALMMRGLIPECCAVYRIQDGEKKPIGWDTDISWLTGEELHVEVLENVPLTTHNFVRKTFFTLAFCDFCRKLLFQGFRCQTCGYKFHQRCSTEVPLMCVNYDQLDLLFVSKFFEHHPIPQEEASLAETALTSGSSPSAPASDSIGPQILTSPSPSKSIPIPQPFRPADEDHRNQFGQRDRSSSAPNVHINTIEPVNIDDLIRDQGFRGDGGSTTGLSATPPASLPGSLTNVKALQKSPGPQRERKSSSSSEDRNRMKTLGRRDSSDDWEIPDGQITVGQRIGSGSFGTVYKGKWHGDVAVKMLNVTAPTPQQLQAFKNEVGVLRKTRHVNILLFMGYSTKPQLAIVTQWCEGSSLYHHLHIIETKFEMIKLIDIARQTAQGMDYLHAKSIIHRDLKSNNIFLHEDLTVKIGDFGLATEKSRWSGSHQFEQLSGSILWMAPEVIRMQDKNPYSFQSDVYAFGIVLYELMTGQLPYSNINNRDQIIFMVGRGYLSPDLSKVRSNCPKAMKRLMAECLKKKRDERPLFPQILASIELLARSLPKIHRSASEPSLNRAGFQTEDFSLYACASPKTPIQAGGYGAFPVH
Experiment: Raf/Mek Amplified Luminescence Proximity Homogeneous Assay (Alpha Screen)
Details: b-Raf(V600E) approximately 4 pM; biotinylated Mek, kinase dead approximately 10 nM; ATP 10 μM; pre-incubation 60 minutes; reaction 3 hours at room temperature; read-out: mut-bRaf IC50
Under this convention, criterion met denotes IC50 strictly below 0.6 nM and criterion not met denotes IC50 at or above 0.6 nM.

Just wondering, is IC50 of CCCS(=O)(=O)Nc1cc(Cl)cc(-c2nc(C3CC3)sc2-c2ccnc(NC)n2)c1Cl below 0.6 nM? criterion met

Just wondering, is IC50 of CCCS(=O)(=O)Nc1cccc(-c2nc(C(C)(C)C)sc2-c2ccnc(N)n2)c1F below 0.6 nM? criterion not met

Just wondering, is IC50 of COC(=O)N[C@@H](C)CNc1nccc(-c2sc(C(C)(C)C)nc2-c2cccc(NS(C)(=O)=O)c2F)n1 below 0.6 nM? criterion met

Just wondering, is IC50 of CNc1nccc(-c2oc(C3CC3)nc2-c2cc(F)cc(NS(C)(=O)=O)c2Cl)n1 below 0.6 nM? criterion not met

Just wondering, is IC50 of COC(=O)N[C@@H](C)CNc1nccc(-c2oc(C3CC3)nc2-c2cc(Cl)cc(NS(C)(=O)=O)c2Cl)n1 below 0.6 nM? criterion met

Just wondering, is IC50 of CCCS(=O)(=O)Nc1cccc(-c2nc(C(C)(C)C)sc2-c2ccnc(NC[C@H](C)NC(=O)OC)n2)c1F below 0.6 nM? criterion not met

Just wondering, is IC50 of COC(=O)N[C@@H](C)CNc1nccc(-c2sc(C3CC3)nc2-c2cc(Cl)cc(NS(C)(=O)=O)c2F)n1 below 0.6 nM? criterion met

###

Biological target: b-Raf(V600E) (Homo sapiens, UniProt P15056, V600E)
Experiment: Raf/Mek Amplified Luminescence Proximity Homogeneous Assay (Alpha Screen)
Conditions: b-Raf(V600E) approximately 4 pM; biotinylated Mek, kinase dead approximately 10 nM; ATP 10 μM; pre-incubation 60 minutes; reaction 3 hours at room temperature; read-out: mut-bRaf IC50
Under this convention, Criterion met denotes IC50 strictly below 1000 pM and Criterion not met denotes IC50 at or above 1000 pM.

Just wondering, is IC50 of CCCS(=O)(=O)Nc1cc(F)cc(-c2nc(C3CC3)sc2-c2ccnc(N)n2)c1Cl below 1000 pM? Criterion met

Just wondering, is IC50 of CS(=O)(=O)Nc1cccc(-c2nc(C3CC3)oc2-c2ccnc(NCCC#N)n2)c1Cl below 1000 pM? Criterion met

Just wondering, is IC50 of COC(=O)N[C@@H](C)CNc1nccc(-c2sc(C3CC3)nc2-c2cccc(NS(C)(=O)=O)c2Cl)n1 below 1000 pM? Criterion met

Just wondering, is IC50 of CS(=O)(=O)Nc1cc(Cl)cc(-c2nc(C3CC3)sc2-c2ccnc(N)n2)c1F below 1000 pM? Criterion not met

Just wondering, is IC50 of CCCS(=O)(=O)Nc1cccc(-c2nc(C3CC3)sc2-c2ccnc(NC[C@H](C)NC(=O)OC)n2)c1F below 1000 pM? Criterion met

Just wondering, is IC50 of CCCS(=O)(=O)Nc1cc(F)cc(-c2nc(C(C)(C)C)sc2-c2ccnc(NC)n2)c1Cl below 1000 pM? Criterion met

Just wondering, is IC50 of CCCS(=O)(=O)Nc1cccc(-c2nc(C(C)(C)C)sc2-c2ccnc(NC[C@H](C)NC(=O)OC)n2)c1Cl below 1000 pM? Criterion met

Just wondering, is IC50 of CNc1nccc(-c2oc(C3CC3)nc2-c2cc(Cl)cc(NS(C)(=O)=O)c2F)n1 below 1000 pM? Criterion not met

Just wondering, is IC50 of CCCS(=O)(=O)Nc1cccc(-c2nc(C3CC3)sc2-c2ccnc(N)n2)c1Cl below 1000 pM? Criterion not met

Just wondering, is IC50 of CCCS(=O)(=O)Nc1cccc(-c2nc(C3CC3)oc2-c2ccnc(N)n2)c1F below 1000 pM? Criterion not met

Just wondering, is IC50 of CCCS(=O)(=O)Nc1cc(Cl)cc(-c2nc(C3CC3)sc2-c2ccnc(NC[C@H](C)NC(=O)OC)n2)c1Cl below 1000 pM? Criterion met

Just wondering, is IC50 of COC(=O)N[C@@H](C)CNc1nccc(-c2oc(C3CC3)nc2-c2cc(F)cc(NS(C)(=O)=O)c2Cl)n1 below 1000 pM? Criterion not met

Just wondering, is IC50 of CCCS(=O)(=O)Nc1cccc(-c2nc(C(C)(C)C)sc2-c2ccnc(N)n2)c1Cl below 1000 pM? Criterion met

Just wondering, is IC50 of CNc1nccc(-c2sc(C(C)(C)C)nc2-c2cc(F)cc(NS(C)(=O)=O)c2Cl)n1 below 1000 pM? Criterion not met

Just wondering, is IC50 of CCCS(=O)(=O)Nc1cccc(-c2nc(C3CC3)oc2-c2ccnc(N)n2)c1Cl below 1000 pM? Criterion not met

Just wondering, is IC50 of COC(=O)N[C@@H](C)CNc1nccc(-c2oc(C3CC3)nc2-c2cccc(NS(C)(=O)=O)c2Cl)n1 below 1000 pM? Criterion not met

Just wondering, is IC50 of CCCS(=O)(=O)Nc1cccc(-c2nc(C3CC3)oc2-c2ccnc(NC[C@H](C)NC(=O)OC)n2)c1Cl below 1000 pM? Criterion not met

Just wondering, is IC50 of COC(=O)N[C@@H](C)CNc1nccc(-c2sc(C(C)(C)C)nc2-c2cc(F)cc(NS(C)(=O)=O)c2Cl)n1 below 1000 pM? Criterion met

Just wondering, is IC50 of CCCS(=O)(=O)Nc1cccc(-c2nc(C(C)(C)C)sc2-c2ccnc(NC)n2)c1Cl below 1000 pM? Criterion not met

Just wondering, is IC50 of CNc1nccc(-c2sc(C3CC3)nc2-c2cc(Cl)cc(NS(C)(=O)=O)c2Cl)n1 below 1000 pM? Criterion met

Just wondering, is IC50 of CC(C)(C)c1nc(-c2cccc(NS(C)(=O)=O)c2Cl)c(-c2ccnc(N)n2)s1 below 1000 pM? Criterion not met

Just wondering, is IC50 of CCCS(=O)(=O)Nc1cc(Cl)cc(-c2nc(C3CC3)oc2-c2ccnc(N)n2)c1Cl below 1000 pM? Criterion met

Just wondering, is IC50 of CCCS(=O)(=O)Nc1cccc(-c2nc(C3CC3)oc2-c2ccnc(NC[C@H](C)NC(=O)OC)n2)c1F below 1000 pM? Criterion met

Just wondering, is IC50 of CCCS(=O)(=O)Nc1cccc(-c2nc(C3CC3)oc2-c2ccnc(NC)n2)c1F below 1000 pM? Criterion not met

Just wondering, is IC50 of CCCS(=O)(=O)Nc1cccc(-c2nc(C3CC3)sc2-c2ccnc(NC)n2)c1F below 1000 pM? Criterion not met

Just wondering, is IC50 of CCCS(=O)(=O)Nc1cc(F)cc(-c2nc(C(C)(C)C)sc2-c2ccnc(NC[C@H](C)NC(=O)OC)n2)c1Cl below 1000 pM? Criterion met

Just wondering, is IC50 of COC(=O)N[C@@H](C)CNc1nccc(-c2sc(C3CC3)nc2-c2cc(F)cc(NS(C)(=O)=O)c2Cl)n1 below 1000 pM? Criterion met

Just wondering, is IC50 of CCCS(=O)(=O)Nc1cc(F)cc(-c2nc(C(C)(C)C)sc2-c2ccnc(N)n2)c1Cl below 1000 pM? Criterion met

Just wondering, is IC50 of CNc1nccc(-c2oc(C3CC3)nc2-c2cc(Cl)cc(NS(C)(=O)=O)c2Cl)n1 below 1000 pM? Criterion not met

Just wondering, is IC50 of CNc1nccc(-c2sc(C3CC3)nc2-c2cc(Cl)cc(NS(C)(=O)=O)c2F)n1 below 1000 pM? Criterion not met

Just wondering, is IC50 of CCCS(=O)(=O)Nc1cc(Cl)cc(-c2nc(C3CC3)sc2-c2ccnc(NC[C@H](C)NC(=O)OC)n2)c1F below 1000 pM? Criterion met

###

Target: b-Raf(V600E) (Homo sapiens, UniProt P15056, V600E)
Assay: Raf/Mek Amplified Luminescence Proximity Homogeneous Assay (Alpha Screen)
Details: b-Raf(V600E) approximately 4 pM; biotinylated Mek, kinase dead approximately 10 nM; ATP 10 μM; pre-incubation 60 minutes; reaction 3 hours at room temperature; read-out: mut-bRaf IC50
Under this convention, Met denotes IC50 strictly below 3 nM and Not met denotes IC50 at or above 3 nM.

Just wondering, is IC50 of CCCS(=O)(=O)Nc1cc(F)cc(-c2nc(C3CC3)sc2-c2ccnc(NC[C@H](C)NC(=O)OC)n2)c1Cl below 3 nM? Met

Just wondering, is IC50 of CNc1nccc(-c2sc(C(C)(C)C)nc2-c2cccc(NS(C)(=O)=O)c2Cl)n1 below 3 nM? Not met

Just wondering, is IC50 of CCCNc1nccc(-c2oc(C3CC3)nc2-c2cccc(NS(C)(=O)=O)c2Cl)n1 below 3 nM? Not met

Just wondering, is IC50 of CS(=O)(=O)Nc1cccc(-c2nc(C3CC3)sc2-c2ccnc(N)n2)c1Cl below 3 nM? Not met

Just wondering, is IC50 of CS(=O)(=O)Nc1cc(F)cc(-c2nc(C3CC3)sc2-c2ccnc(N)n2)c1Cl below 3 nM? Not met

Just wondering, is IC50 of CS(=O)(=O)Nc1cc(F)cc(-c2nc(C3CC3)oc2-c2ccnc(N)n2)c1Cl below 3 nM? Met

Just wondering, is IC50 of CCCS(=O)(=O)Nc1cc(Cl)cc(-c2nc(C3CC3)oc2-c2ccnc(NC)n2)c1F below 3 nM? Met

Just wondering, is IC50 of CCCS(=O)(=O)Nc1cc(Cl)cc(-c2nc(C(C)(C)C)sc2-c2ccnc(N)n2)c1Cl below 3 nM? Met
